experiment: in vivo; details: mouse, serum, other: AZD9496 oral (gavage); fulvestrant subcutaneous
ENDPOINT LABEL: AUC
Answer format: value, then unit.

{"COMPOUND": "C[C@@H]1Cc2c([nH]c3ccccc23)[C@@H](c2c(F)cc(/C=C/C(=O)O)cc2F)N1CC(C)(C)F [AZD9496]", "OBSERVED RESULT": "218 µM·h"}

stdin: Please give the measured AUC for this compound: C[C@]12CC[C@@H]3c4ccc(O)cc4C[C@@H](CCCCCCCCC[S+]([O-])CCCC(F)(F)C(F)(F)F)[C@H]3[C@@H]1CC[C@@H]2O (some centres unmarked) [fulvestrant]
stdout: 5.29 µM·h
